# test.target: α-glucosidase (Saccharomyces cerevisiae, UniProt P53341)
# Sequence (P53341 whole entry): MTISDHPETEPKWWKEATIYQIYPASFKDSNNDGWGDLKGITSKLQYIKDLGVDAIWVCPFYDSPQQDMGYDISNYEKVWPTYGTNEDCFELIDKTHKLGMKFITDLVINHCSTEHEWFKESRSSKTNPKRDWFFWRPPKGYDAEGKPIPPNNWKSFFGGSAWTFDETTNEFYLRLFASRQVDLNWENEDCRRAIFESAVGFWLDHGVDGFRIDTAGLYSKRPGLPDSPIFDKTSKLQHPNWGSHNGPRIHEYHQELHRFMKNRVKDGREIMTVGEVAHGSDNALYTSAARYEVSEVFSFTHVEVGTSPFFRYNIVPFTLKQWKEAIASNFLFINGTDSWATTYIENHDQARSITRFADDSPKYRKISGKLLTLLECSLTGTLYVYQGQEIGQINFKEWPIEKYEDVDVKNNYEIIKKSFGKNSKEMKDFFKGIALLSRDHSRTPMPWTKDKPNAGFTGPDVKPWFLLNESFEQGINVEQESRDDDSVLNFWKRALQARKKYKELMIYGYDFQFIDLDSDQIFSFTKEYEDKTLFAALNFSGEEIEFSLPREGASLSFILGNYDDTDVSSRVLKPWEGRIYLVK
parameter.measured: pKi
As a rule, pKi stands for the negative log10 of the concentration, concentration in M.

Using known records, supply pKi for CC(=O)C[C@@H]1[C@H](O)[C@H](O)[C@H](O)CN1Cc1c(Cl)cc(O)cc1Cl 5.07

====

# test.target: α-glucosidase from yeast (Saccharomyces cerevisiae, UniProt P53341)
# Sequence (P53341 whole entry): as above
# assay.info: biochemical
# Type: biochemical
pIC50: −log10 of the molar value.
parameter.measured: pIC50

Example cases with answers are listed next.
* CC(=O)CC1C(O)C(O)C(O)CN1Cc1ccc(O)cc1 (centres unmarked) [Compound 5λ] | 5.13
* COc1ccc(CN2C[C@@H](O)[C@@H](O)[C@@H](O)[C@H]2CC(C)=O)cc1O [Compound 6h] | < 4.70
* COc1cc(CN2C[C@@H](O)[C@@H](O)[C@@H](O)[C@H]2CC(C)=O)ccc1O [Compound 6f] | < 4.70

Note pIC50 for the compound shown: CC(=O)C[C@H]1NC[C@@H](O)[C@@H](O)[C@H]1O [Compound 4] < 4.70

Supply reported pIC50 belonging to this compound: CC(=O)CC1C(O)C(O)C(O)CN1Cc1ccccc1Cl (centres unmarked) [Compound 5r] 4.92

// Input: CCOc1cc(CN2C[C@@H](O)[C@@H](O)[C@@H](O)[C@H]2CC(C)=O)ccc1O [Compound 6g] . Output its pIC50 only. < 4.70

Check the records and state pIC50 for CC(=O)CC1C(O)C(O)C(O)CN1Cc1ccccc1O (centres unmarked) [Compound 5θ] < 4.70

Identify pIC50 associated with the compound CC(=O)CC1C(O)C(O)C(O)CN1Cc1cccc(O)c1 (centres unmarked) [Compound 5π] < 4.70

====

# test.target: α-glucosidase from yeast (Saccharomyces cerevisiae, UniProt P53341)
# assay.info: biochemical
# Assay type: biochemical
# experimental.parameters: read-out: IC50 against α-glucosidase from yeast
parameter.measured: IC50 (µM)
# output: bare number, implied unit µM

In the examples that follow, each entry is paired with its recorded IC50.
• CC(=O)C[C@@H]1[C@H](O)[C@H](O)[C@H](O)CN1Cc1ccc(O)cc1Cl [Compound 6d] = 2.4
• CC(=O)C[C@@H]1[C@H](O)[C@H](O)[C@H](O)CN1Cc1ccc(O)c(F)c1 [Compound 6c] = 3.3
• CC(=O)C[C@@H]1[C@H](O)[C@H](O)[C@H](O)CN1Cc1ccc(O)c(Br)c1 [Compound 6b] = 5.3
• CC(=O)C[C@@H]1[C@H](O)[C@H](O)[C@H](O)CN1Cc1ccc(O)c(Cl)c1 [Compound 6a] = 5.6
• CC(=O)C[C@@H]1[C@H](O)[C@H](O)[C@H](O)CN1Cc1c(Cl)cc(O)cc1Cl [Compound 6e] = 0.9

Let us examine a further case.
Consider the compound CC(=O)C[C@@H]1[C@H](O)[C@H](O)[C@H](O)CN1Cc1cc(Br)c(O)c(Br)c1 [Compound 6i] and give its recorded IC50. 5.5
